- assay explanation: Accelerated stability screening monitored by SEC
- Type: physicochemical
- study conditions: SEC, 7 days storage at 50° C.
Please respond with reported Aggregate (%) for every item in the list.
Answers are plain numbers, in %.

{"molecule": "Hu2B5.9: humanized 2B5-8.0; VH SEQ ID NO 76, VL SEQ ID NO 77 (antibody, V domains shown) VH: EVQLVQSGAEVKKPGASVKVSCKASGYTFTKYWLGWVRQAPGQGLEWMGDIYPGYDYTHYNEKFKDRVTMTTDTSTSTAYMELRSLRSDDTAVYYCARSDGSSTYWGQGTLVTVSS VL: DIVMTQTPLSLPVTPGEPASISCTSSQNIVHSNGNTYLEWYLQKPGQSPQLLIYKVSNRFSGVPDRFSGSGSGTDFTLKISRVEAEDVGVYYCFQVSHVPYTFGGGTKVEIKR", "units of measure": "%", "Aggregate (%)": 1.9559}
{"molecule": "Hu2B5.2: humanized 2B5-8.0; VH SEQ ID NO 62, VL SEQ ID NO 63 (antibody, V domains shown) VH: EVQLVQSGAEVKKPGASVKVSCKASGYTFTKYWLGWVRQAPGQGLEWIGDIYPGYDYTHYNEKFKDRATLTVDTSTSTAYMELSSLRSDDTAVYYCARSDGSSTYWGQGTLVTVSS VL: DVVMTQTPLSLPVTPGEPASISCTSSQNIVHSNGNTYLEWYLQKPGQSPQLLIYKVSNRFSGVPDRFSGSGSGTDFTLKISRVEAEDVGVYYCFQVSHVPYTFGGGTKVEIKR", "units of measure": "%", "Aggregate (%)": 2.1753}
{"molecule": "Hu2B5.6: humanized 2B5-8.0; VH SEQ ID NO 70, VL SEQ ID NO 71 (antibody, V domains shown) VH: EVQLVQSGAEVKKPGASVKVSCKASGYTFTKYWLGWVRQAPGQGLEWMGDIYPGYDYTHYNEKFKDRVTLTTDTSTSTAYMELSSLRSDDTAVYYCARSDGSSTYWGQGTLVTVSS VL: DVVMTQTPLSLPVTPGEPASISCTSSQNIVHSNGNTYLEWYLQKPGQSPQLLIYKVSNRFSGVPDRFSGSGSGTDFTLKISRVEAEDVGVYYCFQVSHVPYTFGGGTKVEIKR", "units of measure": "%", "Aggregate (%)": 2.1577}
{"molecule": "Hu2B5.3: humanized 2B5-8.0; VH SEQ ID NO 64, VL SEQ ID NO 65 (antibody, V domains shown) VH: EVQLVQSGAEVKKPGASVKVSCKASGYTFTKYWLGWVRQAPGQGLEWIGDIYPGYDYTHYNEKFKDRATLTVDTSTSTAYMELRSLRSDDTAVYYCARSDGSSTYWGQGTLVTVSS VL: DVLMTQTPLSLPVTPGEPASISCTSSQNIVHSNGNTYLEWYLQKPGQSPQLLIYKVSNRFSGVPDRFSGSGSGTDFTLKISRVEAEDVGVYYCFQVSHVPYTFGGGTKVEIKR", "units of measure": "%", "Aggregate (%)": 2.6042}
{"molecule": "Hu2B5.4: humanized 2B5-8.0; VH SEQ ID NO 66, VL SEQ ID NO 67 (antibody, V domains shown) VH: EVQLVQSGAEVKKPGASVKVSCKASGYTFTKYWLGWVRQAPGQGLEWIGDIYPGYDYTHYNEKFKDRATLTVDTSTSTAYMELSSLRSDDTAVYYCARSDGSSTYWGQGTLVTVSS VL: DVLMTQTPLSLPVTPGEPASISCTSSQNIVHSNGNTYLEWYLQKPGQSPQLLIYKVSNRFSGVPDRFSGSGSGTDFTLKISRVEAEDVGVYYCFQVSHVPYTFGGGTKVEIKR", "units of measure": "%", "Aggregate (%)": 2.1689}

// moving on: another record for Aggregate (%)
Input Hu2B5.1: humanized 2B5-8.0; VH SEQ ID NO 60, VL SEQ ID NO 61 (antibody, V domains shown) VH: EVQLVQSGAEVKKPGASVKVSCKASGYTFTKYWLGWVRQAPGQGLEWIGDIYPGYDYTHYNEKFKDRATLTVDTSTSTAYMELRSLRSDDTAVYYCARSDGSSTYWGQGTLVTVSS VL: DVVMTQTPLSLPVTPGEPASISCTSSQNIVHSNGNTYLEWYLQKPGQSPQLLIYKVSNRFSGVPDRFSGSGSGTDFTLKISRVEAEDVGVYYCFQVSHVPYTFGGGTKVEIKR . Output Aggregate (%): 2.5611

Ref: patent US8624002B2
